Assay: MTT cytotoxicity assay in diploid lung fibroblasts WI-38
Assay type: cell-based, human
Settings: human, WI-38 diploid lung fibroblasts; WI-38, at 154 µM, 72 h; read-out: cell viability
Method: Cytotoxicity structure-activity relationship analyses of compounds in NSCLC tumor cells and fibroblasts. […] The cytotoxicity of the compounds was assessed at 72 h post addition to cells by adding MTT solution (0.5 mg/mL, Sigma-Aldrich, 4 h at 37 °C) and dissolving the resulting formazan crystals in an SDS-containing solution (10% SDS and 0.01 mol/L HCl). Absorbance was quantified at 595 nm and the compound-induced cytotoxicity was calculated relative to that observed in DMSO-treated cells. […]
PROPERTY: viability at 72 h, 154 µM

Retrieve viability at 72 h, 154 µM measured for C#CC(CCCCCCCCCCCCCCC)SC(C)=O (racemic) [rac-39, S-Octadec-1-yn-3-yl ethanethioate] and print it. ~85%
